Target: P2X purinoceptor 4 (Homo sapiens)
Sequence (Q99571 whole entry): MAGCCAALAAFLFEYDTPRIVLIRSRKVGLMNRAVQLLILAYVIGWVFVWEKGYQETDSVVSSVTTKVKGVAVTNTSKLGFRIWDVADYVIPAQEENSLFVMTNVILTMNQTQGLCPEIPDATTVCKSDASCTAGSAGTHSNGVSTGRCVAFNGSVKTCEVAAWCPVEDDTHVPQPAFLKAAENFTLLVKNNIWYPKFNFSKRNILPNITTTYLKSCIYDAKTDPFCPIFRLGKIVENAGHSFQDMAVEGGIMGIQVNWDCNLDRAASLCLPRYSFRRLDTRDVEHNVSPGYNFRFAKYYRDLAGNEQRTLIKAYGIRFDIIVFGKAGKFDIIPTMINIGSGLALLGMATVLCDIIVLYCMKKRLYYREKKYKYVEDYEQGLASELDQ
observed.property: IC50 (µM)
Please reply with the bare figure in µM and do not write the unit itself.

compound.smiles: Cc1cc(F)ccc1CS(=O)(=O)Nc1ccc(N2C(=O)CC(=O)Nc3c2ccc2ccccc32)cc1
IC50 (µM): 0.008

Shifting focus to the compound that follows.
Consider "Cc1cc(F)ccc1S(=O)(=O)Nc1ccc(N2C(=O)CC(=O)Nc3c2ccc2ccccc32)cc1" . Its measured IC50 is 0.064
